These entries and their values trace back to PubChem BioAssay (NCI).

The following compounds are listed with their measured growth inhibition values.
assay: NCI Yeast Anticancer Drug Screen. Data for the bub3 strain (AID 167); settings: S. cerevisiae bub3 mutant strain, at 50.0 µM, active compounds read high
About 79,000 compounds went through this panel and 15% of them were active in at least one assay; those are over-represented in the sample as a whole.

{"COMPOUND": "CC1(C)C=C(C(Cl)c2ccccc2)C(=O)c2ccccc21 (centres undefined)", "growth inhibition / %": -3.7}
{"COMPOUND": "Nc1ncnc2c1ncn2C1OC(C(O)CO)C(O)C1N (centres undefined)", "growth inhibition / %": 0.55}
{"COMPOUND": "C=CCOC(=O)Nc1ccc(S(=O)(=O)N(CCC)CCC)cc1", "growth inhibition / %": -14.7}
{"COMPOUND": "CCOC(=O)/C(C#N)=C/c1ccc(Cl)cc1", "growth inhibition / %": -34.4}
{"COMPOUND": "Cc1ccc(S(=O)(=O)Nc2nnc(CC(C)C)s2)cc1", "growth inhibition / %": 40.9}
{"COMPOUND": "CCOC(=O)/C(=C/c1cc(OC)ccc1OC)P(=O)(OCC)OCC", "growth inhibition / %": 4.65}
{"COMPOUND": "CN1c2ccccc2C(=O)NC12CCN(CCCC(=O)c1ccc(F)cc1)CC2", "growth inhibition / %": 21.9}
{"COMPOUND": "CC(C)N(CCN1CCCCC1)c1ccccn1", "growth inhibition / %": 10.3}
{"COMPOUND": "COC1OC(CO)C(O)C1O (centres undefined)", "growth inhibition / %": -4.85}
{"COMPOUND": "Cc1ccc2c(c1O)C(=O)c1ccccc1C2=O", "growth inhibition / %": 29.7}
{"COMPOUND": "CC(C)COCC1COC2(OCC(C)(C)C2OC(=O)Nc2ccccc2)O1 (centres undefined)", "growth inhibition / %": 5.95}
{"COMPOUND": "Nc1ccc2cc(S(=O)(=O)O)cc(S(=O)(=O)O)c2c1", "growth inhibition / %": -0.15}
{"COMPOUND": "CCOC(=O)NC(Nc1ccc(F)cc1F)(C(F)(F)F)C(F)(F)F", "growth inhibition / %": -14.8}
{"COMPOUND": "CN(C(=N)N)c1ccc(C(=O)Oc2ccc([N+](=O)[O-])cc2)cc1", "growth inhibition / %": 15.1}
{"COMPOUND": "COC(=O)CC(NC(=O)OCc1ccccc1)C(=O)NC(COC(C)=O)C(=O)NCC(=O)OCc1ccccc1 (centres undefined)", "growth inhibition / %": 3.2}
{"COMPOUND": "CCC1=CCN(c2cc(C)ccn2)OC1c1ccc(OC)cc1 (centres undefined)", "growth inhibition / %": 61}
{"COMPOUND": "O=C(O)c1c(CC(Cc2ccc3c(c2)CCCC3)C(=O)O)ccc2c1CCCC2 (centres undefined)", "growth inhibition / %": 40.9}
{"COMPOUND": "CCOC(=O)N1CCN(c2c(N)nc(C)[nH]c2=O)CC1", "growth inhibition / %": 19.1}
{"COMPOUND": "CN(C)CCCNc1ccc2ncn3c4ccc(O)cc4c(=O)c1c23", "growth inhibition / %": 0.5}
{"COMPOUND": "CCOC(=O)C1=C(C(C)=O)C(c2ccccc2[N+](=O)[O-])C(C(C)=O)=C(C(=O)OCC)N1", "growth inhibition / %": -9}
{"COMPOUND": "Nc1ccc(S(=O)(=O)NC(=O)c2ccccc2)cc1", "growth inhibition / %": -3}
{"COMPOUND": "CC(C)N(C(=O)C12C3C4C5(C(=O)O)C(C1C35I)C42C(=O)O)C(C)C (centres undefined)", "growth inhibition / %": -10.4}
{"COMPOUND": "C=CCCCC1(c2ccccc2)C(=O)Oc2ccccc21 (centres undefined)", "growth inhibition / %": 12.8}
{"COMPOUND": "O=C1CCCNC(=O)CCCN1", "growth inhibition / %": -14.3}
{"COMPOUND": "CCOC(=O)c1nc2ccc(C(F)(F)F)cc2nc1NCc1ccc(F)cc1", "growth inhibition / %": 12.9}
{"COMPOUND": "O=c1[nH]c(=O)c2ncn(-c3ccc([N+](=O)[O-])cn3)c2[nH]1", "growth inhibition / %": 8.6}
{"COMPOUND": "CCNC(=S)OC1CCC2(C)C(=CCC3C2CCC2(C)C(C(C)CCC(CC)C(C)C)CCC32)C1 (centres undefined)", "growth inhibition / %": -1.55}
{"COMPOUND": "C[CH2][Sn]([CH2]C)([O]C(=O)c1cccc(F)c1)[O][Sn]([CH2]C)([CH2]C)[O]C(=O)c1cccc(F)c1", "growth inhibition / %": 13.6}
{"COMPOUND": "CC1(C)COC(C2(C)C(=O)C=C(c3ccccc3)c3ccccc32)=N1 (centres undefined)", "growth inhibition / %": 3.9}
{"COMPOUND": "COC(=O)C1=C(C)C=C(N2CCOCC2)C(C(=O)OC)C1c1ccccc1 (centres undefined)", "growth inhibition / %": -1.55}
{"COMPOUND": "CC(C)(CO)N1CCN(C(=S)Nc2ccccc2)CC1", "growth inhibition / %": -10.8}
{"COMPOUND": "CC(C)CC(NC(=O)C(CS)NC(=O)CN1C(=O)CCC1=O)C(N)=O (centres undefined)", "growth inhibition / %": 13.3}
{"COMPOUND": "N#Cc1c2nc3ccccc3nc2n2ccc3ccccc3c12", "growth inhibition / %": -42.5}
{"COMPOUND": "O=S(=O)(c1ccccc1)N1N=C2c3ccccc3CCC[C@H]2C1c1ccccc1 (some centres undefined)", "growth inhibition / %": 4.85}
{"COMPOUND": "COC(=N)/C(C#N)=N/C1OCC(O)C(O)C1O (centres undefined)", "growth inhibition / %": 0.35}
{"COMPOUND": "Nc1ccc(S(=O)(=O)NO)cc1", "growth inhibition / %": -2.2}
{"COMPOUND": "O=c1[nH]c(=S)c2cncnc2n1C1OC(CO)C(O)C1O (centres undefined)", "growth inhibition / %": -28.3}
{"COMPOUND": "CC(=O)N1CCC(=O)/C(=C/c2ccccc2)C1", "growth inhibition / %": 17.6}
{"COMPOUND": "Cc1c(C(=O)C/C(=N\\O)C(=O)Nc2cc(Cl)c(Cl)cc2Cl)[n+](=O)c2ccccc2n1[O-]", "growth inhibition / %": 21.4}
{"COMPOUND": "Nc1ccc(N)c2cc(S(=O)(=O)O)ccc12", "growth inhibition / %": -16.2}
{"COMPOUND": "CC(C)C(NC(=O)OC(c1ccccc1)c1ccccc1)C(=O)NC(CSC(c1ccccc1)(c1ccccc1)c1ccccc1)C(=O)NCC(=O)OCc1ccccc1 (centres undefined)", "growth inhibition / %": -10.8}
{"COMPOUND": "O=C(NC(Cc1cnc[nH]1)C(=O)N1CCCC1)C1CCCC1 (centres undefined)", "growth inhibition / %": 0.9}
{"COMPOUND": "O=C1C=CC(=O)c2c1ccc1c3ccccc3n(CCCCCn3c4ccccc4c4ccc5c(c43)C(=O)C=CC5=O)c21", "growth inhibition / %": -28.4}
{"COMPOUND": "O=[N+]([O-])c1ccccc1N=NNc1ccccc1[N+](=O)[O-]", "growth inhibition / %": 3.1}
